Molecular target: NADPH oxidase 2 (Homo sapiens)
Assay: NOX2-dependent H2O2 signal modulators, primary screen, NOX inhibitor project, cell-based, HEK293-NOX2, PMA-stimulated, Amplex Red fluorescence (AID 1159); note: test concentration not given here
Conditions: 45 min, higher = more signal, called active from +8 up or from −8 down
Calls of active or inactive are those of the source.
Measured parameter: z-score

Name the reported z-score value associated with the compound C=CCNC(=O)[C@H]1[C@@H]2C(=O)O[C@@H](c3ccccc3)[C@@H](c3ccccc3)N2[C@@H](c2ccccc2OCCO)[C@]12C(=O)N(C(=O)OCCOC)c1ccc(C#CCC(C(=O)OC)C(=O)OC)cc12
0.819 (inactive)

---

Below, each entry is listed alongside its reported composite z-score.
Assay: binders of probe aFGF10 on microarray, primary screen, stem cell growth factor project, biochemical, small-molecule microarray, fluorescence 635/667 (AID 1071);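 note: score merges 667 nm spot intensity and signal to noise from triplicate slides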
Conditions: higher = more signal
Write the number on its own, no unit after it.

Name the reported composite z-score value associated with the compound [N-]=[N+]=NCc1ccccc1C[C@]1(C(=O)N2CCCCC2)N=C(c2ccc(OCCCO)cc2)O[C@H]1c1ccccc1CN=[N+]=[N-]
0.765

And what about the compound CCOC(=O)C[C@H]1[C@H](OC(=O)c2ccccc2-c2ccccc2)[C@@H](NC(=O)c2ccc(-c3ccccc3)cc2)c2cc(OCCCO)ccc2N1C(=O)Cc1ccc(OC)cc1 ?
0.389

And what about the compound CC(C)[Si](OCC[C@H]1O[C@]2(C(=O)N(Cc3ccccc3)c3ccccc32)[C@@H](C)[C@@H]1[Si](C)(C)O)(C(C)C)C(C)C ?
0.164

And what about the compound CO[C@H]1O[C@H](CO)[C@@H](OC(=O)CCc2ccccc2)[C@@H]2OC(=O)[C@H](Cc3cccc(Br)c3)C/C=C/C[C@@H](Cc3cccc(Br)c3)C(=O)O[C@@H]12 ?
-0.722

And what about the compound CC(C)(C)OC(=O)CC[C@]1(C(=O)NCCN2CCOCC2)N=C(c2ccc(OCCCO)cc2)O[C@H]1c1ccccc1CN=[N+]=[N-] ?
0.07

---

Experiment: CREB reporter modulators without forskolin, primary screen, cell-based, PC12, CRE-LacZ reporter, unstimulated (AID 1145)
Conditions: no forskolin, luminescence, 4.5 h, higher = more signal, called active from +8 up or from −8 down
The source made the active and inactive calls.
Measured parameter: z-score

CO[C@H]1COC(=O)CC=C[C@H](C)[C@@H](OC)COC(=O)CC=C[C@@H]1C	0.786 (inactive)
COC(=O)[C@@]1(Cc2ccccc2N=[N+]=[N-])N=C(c2ccc(OCCCO)cc2)O[C@H]1c1ccccc1CN=[N+]=[N-]	3.33 (inactive)
CN(C)CCCC[C@@H]1NC(=O)[C@@H]2C[C@H](C(=O)NCCCCCNC(=O)CS)[C@H](c3ccc(O)cc3)N2C1=O	-0.667 (inactive)

Pending molecule:
Name the reported z-score value associated with the molecule NC(=O)NCC#Cc1ccc2c(c1)[C@]1(C(=O)N2)[C@H](C(=O)N2CCCCCCC2)[C@H]2C(=O)O[C@H](c3ccccc3)[C@H](c3ccccc3)N2[C@@H]1c1ccccc1OCCO
-0.348 (inactive)

---

Assay: small-molecule binders of probe aLefty1, primary screen, biochemical, small-molecule microarray, 635/667 nm fluorescence (AID 1153);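 note: score merges spot fluorescence with signal-to-noise ratio from the scanned slide images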
Conditions: higher = more signal
// label = TRUE if composite z-score is not less than -0.007, otherwise FALSE

Consider the worked cases shown below.
CCCNC(=O)[C@@H]1c2ccccc2C(=O)N(C2CCCCC2)[C@H]1c1ccc(CO)cc1	TRUE
COc1ccc([Si](C)(C)[C@H]2[C@H](CCO)O[C@@]3(C(=O)N(Cc4ccccc4)c4ccc(N5C(=O)c6cccc7cccc5c67)cc43)[C@@H]2C)cc1	FALSE
COC(=O)C[C@H]1O[C@]2(C(=O)N(Cc3ccccc3)c3ccc(I)cc32)[C@@H](C)[C@@H]1[Si](C)(C)c1ccc(OC)cc1	FALSE
CCCC=C(CCC)[C@@H](NS(=O)(=O)c1ccc(-c2ccccc2)cc1)c1ccc(C(=O)OC)cc1	FALSE
COC(=O)Cn1c(C(=O)N2CCCC2)cc2c1C[C@H]1CN(C(=O)c3ccccc3)[C@@](Cc3ccccc3)(C(=O)OC)[C@@H]21	TRUE

// inclusive: composite z-score at least -0.007? input: Cc1cc(C)c(C(O)C2C=CC3C(=O)N(C)C(=O)C3N2N2CCCCC2)c(C)c1 (centres undefined)
TRUE

And what about the compound O=C1c2ccccc2[C@](Cc2ccccc2I)(C(=O)O)[C@H](c2ccc(CO)cc2)N1C1CCCCC1 ?
TRUE

And what about the compound CC(C)C[C@@H]1NC(=O)[C@H]2C[C@@H](C(=O)NCCCCCC[N+](C)(C)C)[C@@H](c3ccc(O)cc3)N2C1=O ?
TRUE
